Measured Titer, antigen binding by item
target: T1, EGFRvIII-rabbit Fc fusion protein (human; rabbit, UniProt P00533 298-645); assay: ELISA, minilipofection supernatant titrated 1:2 on EGFRvIII-Rab Ig Fc fusion protein (1.5 ug/ml)
T1 construct: made in 293F cells; also called EGFRvIII-RbFc; EGFRvIII-Rab Ig Fc fusion protein; not shown: rabbit IgG Hinge-CH2-CH3 (721 bp fragment)

Worked examples, 2 binders total:
SC-EGFRvIII-XG2-170 (antibody, human IgG1, V domains shown, XenoMax-derived from an XMG2 mouse; also called SC170; sc170) VH: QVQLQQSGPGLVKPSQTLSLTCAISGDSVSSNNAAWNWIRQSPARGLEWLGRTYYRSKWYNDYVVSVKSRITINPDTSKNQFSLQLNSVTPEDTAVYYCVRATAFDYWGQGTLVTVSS VL: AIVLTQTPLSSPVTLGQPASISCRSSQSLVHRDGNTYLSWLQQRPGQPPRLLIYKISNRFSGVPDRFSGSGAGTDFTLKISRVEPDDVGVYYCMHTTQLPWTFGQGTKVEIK :: > 64 reciprocal dilution
SC-EGFRvIII-XG1-333 (antibody, human IgG1, V domains shown, XenoMax-derived) VH: QVQLVESGGGVVQPGRSLRLSCVASGFTLSSYGMHWVRQALGKGLEWVAVTSYDGSKKDYADSVKGRFTISRDNSKNTLYLQMNSLRAEDTAVYYCVSEGYCDSTSCYKYYYYGMDVWGQGTTVTVSS VL: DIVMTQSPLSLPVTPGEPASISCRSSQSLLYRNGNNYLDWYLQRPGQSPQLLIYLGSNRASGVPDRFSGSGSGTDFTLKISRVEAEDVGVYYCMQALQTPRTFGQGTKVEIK :: > 64 reciprocal dilution

# context switch: different binder, same Titer, antigen binding
Query string: Read off the recorded Titer, antigen binding for SC-EGFRvIII-XG1-123/124 (antibody, human IgG1, V domains shown, also called 129A7) VH: QVQLVESGGGVVQPGRSLRLSCAASGFTLSSYGMHWVRQAPGKGLEWVAVMSYDGSKEDYADSVKGRFTISRDNSENTLYLQMNSLRAEDTAVYYCVSEGYCSSRSCYKYYYYGMDVWGQGTTVTVSS VL: DIVMTQSPLSLPVTPGEPASISCRSSQSLLYRNGNNYLDWYLQKPGQSPQLLIYLGSNRASGVPDRFSGSGSGTDFTLNISRVEAEDVGHYYCMQALQTPRTFGQGTKVEIK
Result string: > 64 reciprocal dilution
